Assay: chemical genetic growth profiling, strain panel (AID 1159580);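 further: tested at 20 µM; growth read once vehicle control cultures reached saturation at 30 °C; 1 = growth at the plate median or of vehicle wells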
Conditions: S. cerevisiae deletion strains, growth OD, locus YMR219W, strain ESC1, stronger effect = lower value
The campaign covered roughly 5,500 compounds. About 2,000 (36%) were called active. Not shown: some 18% with an inconclusive outcome. The list shows a part of the results.
The entries below come with measured normalized growth values attached.

Worked examples follow.
O=C(Nc1ccccc1SCc1cccc(C(F)(F)F)c1)c1c(F)cccc1Cl    1.02 (inactive)
CN1CNc2c(c(=O)n(C)c(=O)n2C)C1    0.998 (inactive)
O=C(O)c1coc2ccccc2c1=O    0.964 (inactive)
CSc1nc(N)nc(C(C)(C)C)n1    1.02 (inactive)
N#Cc1ccc([N+](=O)[O-])s1    0.7 (active)

We now examine a further compound.
Lab note: COC(=O)c1ccc(Cl)cc1N(Cc1ccccc1)S(C)(=O)=O gave normalized growth of 1 (inactive)

---

Assay: chemical genetic growth profiling, strain panel (AID 1159580)
Settings: S. cerevisiae deletion strains, growth OD, locus YPR106W, strain ISR1
About 2,000 (36%) of roughly 5,500 compounds were called active. Not shown: some 18% with an inconclusive outcome. No stated cut-off is given here; in the data, active means normalized growth mostly below about 0.91 (no sharp cut-off); inconclusive means no clear call, values can overlap the other calls; inactive means mostly above about 0.92. This is one part of the list.
Your response should consist of one outcome taken from yes for active, no for inactive

Cc1ccc2c(c1)CCCN2CC(=O)N(c1ccccc1)C1CCCCC1    no

Could you please tell me the result logged for COc1ccc(C2CC(c3ccccc3)=Nc3ccccc3S2)cc1OC (stereo not drawn) in this assay? no

Could you please tell me the result logged for Cc1nc(-c2ccc(C(F)(F)F)cn2)[nH]c(=O)c1Cl in this assay? no

Could you please tell me the result logged for Fc1ccc(N/N=C\Cc2nnnn2-c2ccccc2)c(F)c1 in this assay? no

Could you please tell me the result logged for O=C(CSCc1nc(-c2ccc(Cl)cc2)cs1)N/N=C\c1cccs1 in this assay? no

Could you please tell me the result logged for O=C1c2ccccc2O[C@@H](c2ccccc2)[C@@H]1NC1CCCCC1 in this assay? no

Could you please tell me the result logged for N#Cc1c(Br)cnn1Cc1cc(C(F)(F)F)cc(C(F)(F)F)c1 in this assay? no

Could you please tell me the result logged for CC(C)(C)c1cc2nc(C(F)(F)F)cc(NNC(=O)c3ccc(Cl)cc3)n2n1 in this assay? no

Could you please tell me the result logged for C/C(=N/Nc1nc(C(C)(C)C)cs1)c1ccc(Cl)c(Cl)c1 in this assay? no

Could you please tell me the result logged for CCC(C)COC(=O)/C=C/c1ccc(N=Cc2ccc(OC)cc2)cc1 (stereo not drawn) in this assay? no

Could you please tell me the result logged for N#CCC(=O)c1cccc(CSc2ccccc2Cl)c1 in this assay? no

Could you please tell me the result logged for COc1cc(NC(=S)Nc2ccccc2OC(F)(F)F)cc(C(F)(F)F)c1 in this assay? no

Could you please tell me the result logged for O=C(NNC(=O)c1csc(-c2cccs2)n1)c1ccc(C(F)(F)F)cc1 in this assay? no

Could you please tell me the result logged for CC(O)(CNCc1ccc(Cl)cc1)CSc1ccccc1Cl (stereo not drawn) in this assay? no

Could you please tell me the result logged for O=C1Nc2ccccc2/C1=N/N=C\c1ccccc1Cl in this assay? no

Could you please tell me the result logged for CCn1nc(C)cc1-c1nnc(Sc2ncc([N+](=O)[O-])s2)n1C in this assay? no

Could you please tell me the result logged for CC(C)(C)c1csc(NC(=O)c2ccc(Cl)cc2Cl)n1 in this assay? no

Could you please tell me the result logged for N#CCCCCOc1ccc2c(=O)cc(-c3ccccc3)oc2c1 in this assay? no

---

Experiment: chemical genetic growth profiling, strain panel (AID 1159580)
Details: S. cerevisiae deletion strains, growth OD, locus YCL061C, strain MRC1, stronger effect = lower value
Screen size: about 5,500 compounds; about 2,000 (36%) were called active. About 18% were inconclusive and are not listed. Some of the results follow.
quantity-measured: normalized growth
Lab note: jot down the number only; don't add units.

Worked examples follow.
Nc1nnc(-c2cccc(Cl)c2Cl)c(N)n1    1.02
COC(=O)C1=C(C)NC(C)=C(C(=O)OC)C1c1ccccc1[N+](=O)[O-]    0.933
Cn1nnnc1SCC1=C(C(=O)O)N2C(=O)C(NC(=O)C(O)c3ccccc3)C2SC1 (centres undefined)    0.968
ClC(Cl)=C(c1ccc(Cl)cc1)c1ccc(Cl)cc1    0.983
Cc1cc2cc3c(C)cc(=O)oc3c(C)c2o1    1
O=c1c(-c2ccc(O)cc2)coc2cc(O)cc(O)c12    1
CC(C)(O)[C@@H]1CC[C@](C)([C@H]2[C@@H](O)C[C@@]3(C)C4C[C@H](O[C@@H]5O[C@H](CO)[C@@H](O)[C@H](O)[C@H]5O)C5C(C)(C)[C@@H](O[C@@H]6OC[C@@H](O)[C@H](O)[C@H]6O)CC[C@@]56C[C@@]46CC[C@]23C)O1 (some centres undefined)    1
CCCCOc1cc(CC2CNC(=O)N2)ccc1OC (centres undefined)    0.985

We now examine a further compound.
Lab note: CC(C)(C)OC(=O)NC1CCN(C(=O)c2ccc(Cl)cc2Cl)CC1 gave normalized growth of 1.01

---

Assay: chemical genetic growth profiling, strain panel (AID 1159580)
Conditions: S. cerevisiae deletion strains, growth OD, locus YKR026C, strain gcn3, stronger effect = lower value
Among all 5,500 compounds or so, about 2,000 (36%) were called active. Inconclusive results (about 18%) are left out. Some of the results follow.
Mark each entry Met if its normalized growth sits below 1, and Not met for all others.

Sample answers from the record:
CC[N+]1(C)CCCC(OC(=O)C(O)(c2ccccc2)c2ccccc2)C1 (configuration not stated)    Not met
O=C1CN2Cc3c(ccc(Cl)c3Cl)N=C2N1    Met
CC(=O)Oc1ccc(-c2cc(=O)c3c(OC(C)=O)cc(OC(C)=O)cc3o2)cc1    Met

Shift focus to the following entry.
Does the reported normalized growth of O=C1c2c(O)ccc(O)c2C(=O)c2c(NCCNCCO)ccc(NCCNCCO)c21 stay below 1? Not met

---

Assay: chemical genetic growth profiling, strain panel (AID 1159580);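 further: tested at 20 µM; growth read once vehicle control cultures reached saturation at 30 °C; 1 = growth at the plate median or of vehicle wells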
Conditions: S. cerevisiae deletion strains, growth OD, locus YGL078C, strain dbp3
About 2,000 (36%) of roughly 5,500 compounds were called active. About 18% were inconclusive and are not listed. Rule as the data show it: active = normalized growth mostly below about 0.91 (no sharp cut-off); inconclusive = no clear call, values can overlap the other calls; inactive = mostly above about 0.92. Some of the results follow.
Your response should consist of one outcome taken from TRUE (active), FALSE (inactive)

Sample answers from the record:
CC1NC(=O)NC1=O (stereo not drawn)    FALSE
N[C@@H]1CONC1=O    FALSE
COC(=O)C1=C(C)NC(C)=C(C(=O)OC)C1c1ccccc1[N+](=O)[O-]    FALSE
O=C(/C=C/c1ccccc1)c1ccc(O)cc1    FALSE
CCN(CCCCOC(=O)c1ccc(OC)c(OC)c1)C(C)Cc1ccc(OC)cc1 (stereo not drawn)    FALSE

Could you please tell me the result logged for CCCCCCc1ccc(O)cc1O in this assay? TRUE

Could you please tell me the result logged for C#CCOS(=O)OC1CCCCC1Oc1ccc(C(C)(C)C)cc1 (stereo not drawn) in this assay? FALSE

Could you please tell me the result logged for COc1ccc(C(=O)/C=C/c2ccccc2)cc1 in this assay? TRUE

Could you please tell me the result logged for NCCc1ccc(O)cc1 in this assay? FALSE

---

Assay: chemical genetic growth profiling, strain panel (AID 1159580);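 further: tested at 20 µM; growth read once vehicle control cultures reached saturation at 30 °C; 1 = growth at the plate median or of vehicle wells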
Settings: S. cerevisiae deletion strains, growth OD, locus YOR083W, strain WHI5 (second series), stronger effect = lower value
Among all 5,500 compounds or so, about 2,000 (36%) were called active. About 18% were inconclusive and are not listed. Some of the results follow.
The entries below come with measured normalized growth values attached.
Lab note: jot down the number only; don't add units.

Worked examples follow.
COC(=O)C1=C(C)NC(C)=C(C(=O)OCCN(C)Cc2ccccc2)C1c1cccc([N+](=O)[O-])c1 (stereo unspecified)    1.01
O=c1[nH]c(=O)n([C@H]2C[C@H](O)[C@@H](CO)O2)cc1/C=C/Br    0.999

Lab note: COC(=O)C1=C(C)NC(C)=C([N+](=O)[O-])C1c1ccccc1C(F)(F)F (stereo unspecified) gave normalized growth of 1

Lab note: N#CC(C#N)=Cc1ccc([N+](=O)[O-])c(O)c1 gave normalized growth of 0.992

Lab note: COc1ccc2c(c1OC)C(=O)O[C@@H]2[C@H]1c2c(cc3c(c2OC)OCO3)CCN1C gave normalized growth of 1.01

Lab note: COC(=O)C1=C(C)NC(C)=C(C(=O)OC)C1c1ccccc1[N+](=O)[O-] gave normalized growth of 1.03

---

Assay: chemical genetic growth profiling, strain panel (AID 1159580);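 further: tested at 20 µM; growth read once vehicle control cultures reached saturation at 30 °C; 1 = growth at the plate median or of vehicle wells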
Settings: S. cerevisiae deletion strains, growth OD, locus YDR137W, strain rgp1
The campaign covered roughly 5,500 compounds. About 2,000 (36%) were called active. About 18% were inconclusive and are not listed. Rule as the data show it: active = normalized growth mostly below about 0.91 (no sharp cut-off); inconclusive = no clear call, values can overlap the other calls; inactive = mostly above about 0.92. The list shows a part of the results.
Your response should consist of one outcome taken from 1.0 (active), 0.0 (inactive)

CCCCCCCCCCCCCCCC[n+]1ccccc1    1.0
N[C@H](CO)Cc1ccccc1    0.0
CCCN1C[C@H](CSC)C[C@@H]2c3cccc4[nH]cc(c34)C[C@H]21    0.0
COc1ccc(-c2cc(=O)c3c(O)c(OC)c(OC)c(OC)c3o2)cc1    0.0
CN(C)C(=O)Oc1cc(OC(=O)N(C)C)cc(C(O)CNC(C)(C)C)c1 (stereo unspecified)    0.0
O=c1cc(-c2cccc(O)c2)oc2ccc(O)cc12    1.0
COc1c(O)cc2c(-c3ccccc3)cc(=O)oc2c1OC    0.0
[N-]=[N+]=CC(=O)OCC(N)C(=O)O (stereo unspecified)    0.0
N[C@@H]1CONC1=O    0.0
COc1cccc(-c2cc(=O)c3ccc(OC)cc3o2)c1    0.0

Could you please tell me the result logged for COc1ccc(-c2cc(=O)c3cc(OC)ccc3o2)cc1 in this assay? 0.0

Could you please tell me the result logged for C[C@@H]1CC[C@@]2(OC1)OC1C(O)C3C4CC[C@H]5C[C@H](O[C@@H]6O[C@H](CO)[C@H](O[C@@H]7O[C@H](CO)[C@@H](O)[C@H](O[C@@H]8OC[C@@H](O)[C@H](O)[C@H]8O)[C@H]7O[C@@H]7O[C@H](CO)[C@H](O)[C@H](O[C@@H]8O[C@H](CO)[C@@H](O)[C@H](O)[C@H]8O)[C@H]7O)[C@H](O)[C@H]6O)[C@H](O)C[C@]5(C)C4CC[C@]3(C)C1[C@@H]2C (stereo partly specified) in this assay? 1.0

Could you please tell me the result logged for O=c1cc(-c2ccc(O)c(O)c2)oc2ccccc12 in this assay? 0.0

Could you please tell me the result logged for O=C(/C=C/c1ccccc1)c1ccc(O)cc1 in this assay? 1.0

Could you please tell me the result logged for COc1c(O)cccc1O in this assay? 0.0

Could you please tell me the result logged for O=c1cc(-c2ccc(O)cc2)oc2ccc(O)cc12 in this assay? 0.0
